Hello, the source for this data is patent US10975068B2, in case you need it.

target: full-length human RORγt (Homo sapiens (Human), UniProt P51449); assay: RORγt (full-length human) reporter assay, Conditions A; format: cell-based; conditions: read-out: RORγt (FL) Reporter Assay A, % inhibition @ 6 μM; Conditions A; @ 6 μM
Sequence (P51449 other isoform, or with tags, fused parts or gaps): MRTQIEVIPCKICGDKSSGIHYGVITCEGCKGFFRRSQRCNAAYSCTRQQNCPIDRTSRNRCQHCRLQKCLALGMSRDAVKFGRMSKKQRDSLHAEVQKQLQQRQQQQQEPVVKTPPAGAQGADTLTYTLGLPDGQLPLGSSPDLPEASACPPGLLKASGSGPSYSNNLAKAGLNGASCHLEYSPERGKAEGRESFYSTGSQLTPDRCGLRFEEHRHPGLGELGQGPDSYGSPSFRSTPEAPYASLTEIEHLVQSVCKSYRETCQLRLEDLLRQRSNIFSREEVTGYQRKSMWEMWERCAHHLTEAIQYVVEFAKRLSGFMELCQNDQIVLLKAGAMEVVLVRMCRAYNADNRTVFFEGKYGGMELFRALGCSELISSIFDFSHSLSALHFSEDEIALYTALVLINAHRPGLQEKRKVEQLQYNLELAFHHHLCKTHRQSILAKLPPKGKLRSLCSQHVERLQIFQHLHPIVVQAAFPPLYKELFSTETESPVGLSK
Readout name: inhibition at 6 µM (%)

- C[C@H]1CCCCN1C(=O)c1nc(C(=O)NCC(C)(C)O)sc1-c1cnc(NC2CCCCC2)c(C(F)(F)F)c1: 106
- Cc1c(-c2sc(C(=O)NCC(C)(C)O)nc2C(=O)N2CCC(F)CC2)cnc(NC2CCCCC2)c1C#N: 90.3
- CC(C)(O)CNC(=O)c1nc(C(=O)N2CCC(F)CC2)c(-c2cnc(NC3CCCC3)cc2C(F)(F)F)s1: 108
- CC(C)(O)CNC(=O)c1nc(C(=O)N2CCC(F)CC2)c(-c2cnc(NC3CCC3)cc2C(F)(F)F)s1: 104
- CC(C)(O)CNC(=O)c1nc(C(=O)N2CCC(F)CC2)c(-c2cnc(NC3CC4(C3)CC(F)(F)C4)cc2C(F)(F)F)s1: 84
- CCc1cc(NC2CCCCC2)ncc1-c1sc(C(=O)NCC(C)(C)O)nc1C(=O)N1CCC(F)CC1: 108
- Cc1cc(NC2CCCCC2)ncc1-c1sc(C(=O)NCC(C)(C)O)nc1C(=O)N1CCC(F)CC1: 98
- CC(C)Nc1cc(C(F)(F)F)c(-c2sc(C(=O)NCC(C)(C)O)nc2C(=O)N2CCC(F)CC2)cn1: 92
